test: Serum stability assay in human serum (LC/MS); conditions: human, Remaining peptide (%), 37 °C, incubation time 8 h, relative to 0 h = 100%, technical replicates
Numbered stars: 1 amine (or outer) side, 2 acyl side, 3 side chain; on linkers, the order of the positions; unused ones are H or OH. Bridge positions count the residues as written; N and C are the ends. Square brackets hold non-standard residues; d marks the D form. Peptide text beside a SMILES is read from it. Acbc(cis-1,3) = O=C([C@H]1C[C@@H](N[*:1])C1)[*:2]; X1 = O=C([C@@H]1CC[C@H](N[*:1])C1)[*:2]
assayReadout: remaining at 8 h, 10 μM (%)
Unit % implied. Number only.

>  <compound>
CC[C@H](C)[C@@H]1NC(=O)[C@H](CO)NC(=O)[C@H](Cc2ccccc2)NC(=O)[C@H]2C[C@H](C2)NC(=O)[C@H](Cc2c[nH]cn2)NC(=O)[C@H](Cc2ccccc2)NC(=O)[C@@H](Cc2ccc(O)cc2)NC(=O)CSC[C@H](C(N)=O)NC(=O)[C@H](CC(C)C)NC(=O)[C@H](CCCNC(=N)N)NC(=O)[C@H](Cc2ccc(O)cc2)NC(=O)[C@H](CCCNC(=N)N)NC(=O)[C@H](Cc2ccccc2)NC1=O [GM2] ({CH2CO}-[dY]FH[Acbc(cis-1,3)]FSIFRYRL[dC]-NH2; thioether N-13)

>  <observedMeasurement>
9.99

$$$$
>  <compound>
CC(C)C[C@@H]1NC(=O)[C@H]([C@@H](C)O)NC(=O)[C@H](Cc2ccc(O)cc2)NC(=O)[C@H]([C@@H](C)O)NC(=O)[C@H](Cc2c[nH]cn2)NC(=O)[C@@H]2CCCN2C(=O)[C@@H]2CCCN2C(=O)[C@H](Cc2ccccc2)NC(=O)[C@H]2C[C@H](C2)NC(=O)[C@H](Cc2c[nH]cn2)NC(=O)[C@H](Cc2ccccc2)NC(=O)[C@@H](Cc2ccc(O)cc2)NC(=O)CSC[C@H](C(N)=O)NC1=O [GM1] ({CH2CO}-[dY]FH[Acbc(cis-1,3)]FPPHTYTL[dC]-NH2; thioether N-13)

>  <observedMeasurement>
116

$$$$
>  <compound>
CC(C)C[C@@H]1NC(=O)[C@H]([C@@H](C)O)NC(=O)[C@H](Cc2ccc(O)cc2)NC(=O)[C@H]([C@@H](C)O)NC(=O)[C@H](Cc2c[nH]cn2)NC(=O)[C@@H]2CCCN2C(=O)[C@@H]2CCCN2C(=O)[C@H](Cc2ccccc2)NC(=O)[C@H](C)NC(=O)[C@H](Cc2c[nH]cn2)NC(=O)[C@H](Cc2ccccc2)NC(=O)[C@@H](Cc2ccc(O)cc2)NC(=O)CSC[C@H](C(N)=O)NC1=O [GM1γ^14A] ({CH2CO}-[dY]FHAFPPHTYTL[dC]-NH2; thioether N-13)

>  <observedMeasurement>
56.1

$$$$

Proceed to the following item.
# query: remaining at 8 h, 10 μM of entry CC(C)C[C@@H]1NC(=O)[C@@H](Cc2ccc(O)cc2)NC(=O)CSC[C@H](C(N)=O)NC(=O)[C@H](C)NC(=O)[C@H](C)NC(=O)[C@H](Cc2ccc(O)cc2)NC(=O)[C@H](CCCNC(=N)N)NC(=O)[C@H](Cc2ccc(O)cc2)NC(=O)[C@@H]2CC[C@@H](C2)NC(=O)[C@H](CO)NC(=O)[C@H](Cc2ccc(O)cc2)NC(=O)[C@H]([C@@H](C)O)NC(=O)[C@H](CO)NC(=O)[C@H](C)NC(=O)[C@H](Cc2ccc(O)cc2)NC(=O)[C@H](Cc2c[nH]cn2)NC1=O [GM3] ({CH2CO}-[dY]LHYASTYS[X1]YRYAA[dC]-NH2; thioether N-16)
15.7

* * *

target: SARS-CoV-2 M^pro (Severe acute respiratory syndrome coronavirus 2, UniProt P0DTD1); assay: biochemical; type: binding; details: read-out: ka (kinetic association)
Numbered stars: 1 amine (or outer) side, 2 acyl side, 3 side chain; on linkers, the order of the positions; unused ones are H or OH. Bridge positions count the residues as written; N and C are the ends. Square brackets hold non-standard residues; d marks the D form. Peptide text beside a SMILES is read from it. Acbc(cis-1,3) = O=C([C@H]1C[C@@H](N[*:1])C1)[*:2]
assayReadout: kon (M⁻¹ s⁻¹)
A number alone suffices; assume M⁻¹ s⁻¹.

Field request: kon | item: CC(C)C[C@@H]1NC(=O)[C@H](CC(N)=O)NC(=O)[C@H](CC(C)C)NC(=O)[C@H]2C[C@H](C2)NC(=O)[C@H](CCC(=O)O)NC(=O)[C@H](Cc2ccccc2)NC(=O)[C@@H](Cc2ccc(O)cc2)NC(=O)CSC[C@H](C(N)=O)NC(=O)CNC(=O)[C@@H]2CCCN2C(=O)[C@H](CCCNC(=N)N)NC(=O)[C@H](Cc2ccc(O)cc2)NC(=O)CNC1=O [GM4H3E] ({CH2CO}-[dY]FE[Acbc(cis-1,3)]LNLGYRPG[dC]-NH2; thioether N-13)
20000

* * *

Measured kon accompanies every entry in the list below.
target: UniProt P0DTD1; assay: biochemical; type: binding; settings: read-out: ka (kinetic association)
Numbered stars: 1 amine (or outer) side, 2 acyl side, 3 side chain; on linkers, the order of the positions; unused ones are H or OH. Bridge positions count the residues as written; N and C are the ends. Square brackets hold non-standard residues; d marks the D form. Peptide text beside a SMILES is read from it. Acbc(cis-1,3) = O=C([C@H]1C[C@@H](N[*:1])C1)[*:2]
Value expressed in M⁻¹ s⁻¹; do not type the unit.

The following molecules have reported results that may help.
>  <molecule>
CC(C)C[C@@H]1NC(=O)[C@@H](Cc2ccc(O)cc2)NC(=O)CSC[C@H](C(N)=O)NC(=O)[C@H](C)NC(=O)[C@H](C)NC(=O)[C@H](Cc2ccc(O)cc2)NC(=O)[C@H](CCCNC(=N)N)NC(=O)[C@H](Cc2ccc(O)cc2)NC(=O)[C@H](C)NC(=O)[C@H](CO)NC(=O)[C@H](Cc2ccc(O)cc2)NC(=O)[C@H]([C@@H](C)O)NC(=O)[C@H](CO)NC(=O)[C@H](C)NC(=O)[C@H](Cc2ccc(O)cc2)NC(=O)[C@H](Cc2c[nH]cn2)NC1=O [GM3γ^210A] ({CH2CO}-[dY]LHYASTYSAYRYAA[dC]-NH2; thioether N-16)

>  <measureUnit>
M⁻¹ s⁻¹

>  <kon>
280000

$$$$
>  <molecule>
CC[C@H](C)[C@@H]1NC(=O)[C@H](CO)NC(=O)[C@H](Cc2ccccc2)NC(=O)[C@H]2C[C@H](C2)NC(=O)[C@H](Cc2c[nH]cn2)NC(=O)[C@H](Cc2ccccc2)NC(=O)[C@@H](Cc2ccc(O)cc2)NC(=O)CSC[C@H](C(N)=O)NC(=O)[C@H](CC(C)C)NC(=O)[C@H](CCCNC(=N)N)NC(=O)[C@H](Cc2ccc(O)cc2)NC(=O)[C@H](CCCNC(=N)N)NC(=O)[C@H](Cc2ccccc2)NC1=O [GM2] ({CH2CO}-[dY]FH[Acbc(cis-1,3)]FSIFRYRL[dC]-NH2; thioether N-13)

>  <measureUnit>
M⁻¹ s⁻¹

>  <kon>
210000

$$$$

Okay, now this molecule:
Bench note: what kon did CC(C)C[C@@H]1NC(=O)[C@H](CC(N)=O)NC(=O)[C@H](CC(C)C)NC(=O)[C@H](CC(N)=O)NC(=O)[C@H](Cc2c[nH]cn2)NC(=O)[C@H](Cc2ccccc2)NC(=O)[C@@H](Cc2ccc(O)cc2)NC(=O)CSC[C@H](C(N)=O)NC(=O)CNC(=O)[C@@H]2CCCN2C(=O)[C@H](CCCNC(=N)N)NC(=O)[C@H](Cc2ccc(O)cc2)NC(=O)CNC1=O [GM4γ^14N] ({CH2CO}-[dY]FHNLNLGYRPG[dC]-NH2; thioether N-13) show?
20000

* * *

biological target: SARS-CoV-2 M^pro (Severe acute respiratory syndrome coronavirus 2, UniProt P0DTD1); assay: biochemical; type: binding
Numbered stars: 1 amine (or outer) side, 2 acyl side, 3 side chain; on linkers, the order of the positions; unused ones are H or OH. Bridge positions count the residues as written; N and C are the ends. Square brackets hold non-standard residues; d marks the D form. Peptide text beside a SMILES is read from it. Acbc(cis-1,3) = O=C([C@H]1C[C@@H](N[*:1])C1)[*:2]
assayReadout: kd (kinetic dissociation)

Hi! What's the reported kd (kinetic dissociation) for CC(C)C[C@@H]1NC(=O)[C@H]([C@@H](C)O)NC(=O)[C@H](Cc2ccc(O)cc2)NC(=O)[C@H]([C@@H](C)O)NC(=O)[C@H](Cc2c[nH]cn2)NC(=O)[C@@H]2CCCN2C(=O)[C@@H]2CCCN2C(=O)[C@H](Cc2ccccc2)NC(=O)[C@H]2C[C@H](C2)NC(=O)[C@H](Cc2c[nH]cn2)NC(=O)[C@H](Cc2ccccc2)NC(=O)[C@@H](Cc2ccc(O)cc2)NC(=O)CSC[C@H](C(N)=O)NC1=O [GM1] ({CH2CO}-[dY]FH[Acbc(cis-1,3)]FPPHTYTL[dC]-NH2; thioether N-13) on SARS-CoV-2 M^pro (Severe acute respiratory syndrome coronavirus 2, UniProt P0DTD1)?
0.94 10^-3 s^-1
